Listed below: remaining activity at 2 µM values for each entry.
target.desc: PDE7A (Homo sapiens)
Sequence (Q13946 whole entry): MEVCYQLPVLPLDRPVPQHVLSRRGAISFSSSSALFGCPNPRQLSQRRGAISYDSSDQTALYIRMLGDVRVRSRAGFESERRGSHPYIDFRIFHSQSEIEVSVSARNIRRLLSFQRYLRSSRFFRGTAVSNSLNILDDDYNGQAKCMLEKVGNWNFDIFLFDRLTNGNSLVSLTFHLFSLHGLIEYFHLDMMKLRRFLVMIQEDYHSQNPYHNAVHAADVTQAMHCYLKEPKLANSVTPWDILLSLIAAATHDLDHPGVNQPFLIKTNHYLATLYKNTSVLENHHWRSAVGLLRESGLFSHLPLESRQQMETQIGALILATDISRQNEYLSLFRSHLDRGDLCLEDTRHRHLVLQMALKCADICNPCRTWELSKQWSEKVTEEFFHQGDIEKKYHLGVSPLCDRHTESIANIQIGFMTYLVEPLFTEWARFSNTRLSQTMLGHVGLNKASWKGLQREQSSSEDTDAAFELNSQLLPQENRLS
method.description: in vitro enzyme assay PDE7A
Type: biochemical
Design: made in house; host or cells: E. coli
settings: 2 micromolar compound; read-out: percent of PDE activity present, PDE7A
measured.endpoint: remaining activity at 2 µM (%)

>>> df
                                   molecule           measured_endpoint  unit_symbol  numeric_value
0  Cc1nc(N2CCC(C)CC2)c2c(C)c(C(=O)Nc3c(F)cc(F)cc3Br)sc2n1 [Compound 58-5]  remaining activity at 2 µM            %             90
1  Cc1c(C(=O)Nc2ccc(F)cc2F)sc2ncnc(N(C)c3ccccc3)c12 [Compound 58-9]  remaining activity at 2 µM            %             52
2  Cc1c(C(=O)Nc2ccc(F)cc2F)sc2ncnc(N3CCN(C)CC3)c12 [Compound 58-1]  remaining activity at 2 µM            %             98
3  Cc1nc(N2CCCCC2C)c2c(C)c(C(=O)Nc3ccc(F)cc3F)sc2n1 (centres unmarked) [Compound 58-4]  remaining activity at 2 µM            %             74
4  Cc1nc(N2CCOCC2)c2c(C)c(C(=O)Nc3ccc(F)cc3F)sc2n1 [Compound 58-2]  remaining activity at 2 µM            %             88
5  Cc1c(C(=O)Nc2ccc3c(c2)OCCO3)sc2ncnc(N3CCc4ccccc4C3)c12 [Compound 58-10]  remaining activity at 2 µM            %             84
6  COc1cc(NC(=O)c2sc3ncnc(N4CCCCC4C)c3c2C)cc(OC)c1OC (centres unmarked) [Compound 58-3]  remaining activity at 2 µM            %             20
7  Cc1c(C(=O)Nc2ccc(F)cc2F)sc2ncnc(N3CCC(C)CC3)c12 [Compound 58]  remaining activity at 2 µM            %             68
